assay: Cytotoxicity in BALB/c mouse splenocytes incubated for 24 hrs by [3H]-thymidine based liquid scintillation counter analysis; assay type: toxicity, cell-based, Splenocyte
Measure name: CC50 at 24 h

Briefly, CC50 at 24 h measured for C/C(=N\N=C1/NC(=O)C(c2ccccc2)S1)c1cc(Cl)ccc1Cl (stereo unspecified) : ≥ 100 µM

---

Can you tell me selectivity ratio for the items I'm about to list?
test: Selectivity index, ratio of CC50 for mouse RAW264.7 cells to IC50 for Leishmania amazonensis WHOM/00 LTB 0016 amastigotes infected in mouse RAW264.7 cells; type: toxicity, cell-based; conditions: read-out: Ratio CC50/IC50
Numbers only.

C/C(=N\N=C1/SCC(=O)N1c1ccccc1)c1ccccn1 ... 0.69
CC(C)C1S/C(=N/N=C/c2ccccn2)N(C)C1=O (configuration not stated) ... 14.3
N/C(S)=N/N=C/c1ccccn1 ... 0.01
C/C(=N\NC(N)=S)c1ccccn1 ... 0.03
C/C(=N\N=C1\SC(C(C)C)C(=O)N1c1ccccc1)c1ccncc1 (configuration not stated) ... 51.9

Look up selectivity ratio for the entries below, preserving their order.
1. CN1C(=O)CS/C1=N/N=C/c1ccccn1
2. CC(C)C1S/C(=N/N=C/c2ccccn2)N(c2ccccc2)C1=O (configuration not stated)

Out:
1: 0.64; 2: 2.82
